assay: Plasma concentration by LC-MS/MS in the breast cancer IVM; format: in vivo, mice; details: female, BALB/cAJcl-nu/nu, mouse, po, 50 mg/kg, BR3 IVM, 8 h after single oral 50 mg/kg
For each of the compounds below, state its concentration at 8 h.
Give the value in ng/mL but do not write ng/mL after it.

Exam item: Note concentration at 8 h for the compound shown: CC#CC(=NOCC1COCCN1)c1ccc2ncnc(Nc3ccc(OCc4cccc(F)c4)c(Cl)c3)c2c1 (centres unmarked) [Epertinib]
Marked response: 920

Exam item: Respond only with concentration at 8 h recorded for CS(=O)(=O)CCNCc1ccc(-c2ccc3ncnc(Nc4ccc(OCc5cccc(F)c5)c(Cl)c4)c3c2)o1 [Lapatinib, reference compound]
Marked response: 630

###

assay: Plasma and brain pharmacokinetics after single oral administration in mice implanted intracranially with MDA-MB-361 cells; details: female, BALB/cAJcl-nu/nu, mouse, plasma, po, 20 mg/kg
What concentration at 2 h was measured for each of the following?
Give the quantity in ng/mL, number only.

Exam item: Output measured concentration at 2 h for this item: CC#CC(=NOCC1COCCN1)c1ccc2ncnc(Nc3ccc(OCc4cccc(F)c4)c(Cl)c3)c2c1 (centres unmarked)
Marked response: 145

Exam item: Write down concentration at 2 h measured for item CS(=O)(=O)CCNCc1ccc(-c2ccc3ncnc(Nc4ccc(OCc5cccc(F)c5)c(Cl)c4)c3c2)o1 [Lapatinib, reference compound]
Marked response: 413

FYI, the data here is from paper PMC5762859.
